- System: Escherichia coli
- Protocol notes: Antimicrobial activity against Escherichia coli MTCC 443 after 24 and 48 hr by serial broth dilution method
- Assay type: functional
Exercise: for every item that follows, state its recorded MIC99.
Give bare numbers, in µg/mL.

INSERT INTO measurements (mol_smiles, reported_measurement) VALUES
  ('O=c1c2ccccc2nc(-c2ccccc2Cl)n1CCc1ccc2nc(-c3ccccc3Cl)n(-c3cccc([N+](=O)[O-])c3)c(=O)c2c1', 50),
  ('O=c1c2ccccc2nc(-c2ccccc2Cl)n1CCc1ccc2nc(-c3ccccc3Cl)n(-c3c(Cl)cc([N+](=O)[O-])cc3Cl)c(=O)c2c1', 500),
  ('O=c1c2ccccc2nc(-c2ccccc2Cl)n1CCc1ccc2nc(-c3ccccc3Cl)n(-c3ccc(Cl)c(Cl)c3)c(=O)c2c1', 200);

// MIC99 lookup, key: Cc1cccc(-n2c(-c3ccccc3Cl)nc3ccc(CCn4c(-c5ccccc5Cl)nc5ccccc5c4=O)cc3c2=O)c1C 50

----------
- Tested on: Aspergillus niger
- Protocol notes: Antimicrobial activity against Aspergillus niger MTCC 282
- Type: functional
Could you please report measured MIC99 for the items listed next?
One number for each entry, in µg/mL.

Previously resolved entries follow.
INSERT INTO results (mol_smiles, measurement_target, readout_unit, reported_measurement) VALUES
  ('O=c1c2ccccc2nc(-c2ccccc2Cl)n1CCc1ccc2nc(-c3ccccc3Cl)n(-c3cccc([N+](=O)[O-])c3)c(=O)c2c1', 'Aspergillus niger', 'µg/mL', 1000),
  ('Cc1cccc(-n2c(-c3ccccc3Cl)nc3ccc(CCn4c(-c5ccccc5Cl)nc5ccccc5c4=O)cc3c2=O)c1C', 'Aspergillus niger', 'µg/mL', 500),
  ('O=c1c2ccccc2nc(-c2ccccc2Cl)n1CCc1ccc2nc(-c3ccccc3Cl)n(-c3ccc(Cl)c(Cl)c3)c(=O)c2c1', 'Aspergillus niger', 'µg/mL', 500);

# per-item lookup of MIC99; items listed below
1. COC1=CC(=O)C[C@@H](C)[C@]12Oc1c(Cl)c(OC)cc(OC)c1C2=O
2. O=c1c2ccccc2nc(-c2ccccc2Cl)n1CCc1ccc2nc(-c3ccccc3Cl)n(-c3ccc(Br)cc3)c(=O)c2c1
3. O=c1c2ccccc2nc(-c2ccccc2Cl)n1CCc1ccc2nc(-c3ccccc3Cl)n(-c3ccccc3[N+](=O)[O-])c(=O)c2c1

[100, 500, 100]

----------
So I've got a bunch of compounds here, and I need their MIC99 values.
- System: Staphylococcus aureus
- Protocol notes: Antimicrobial activity against Staphylococcus aureus MTCC 96 after 24 and 48 hr by serial broth dilution method
- Assay type: functional
Report as: number unit

INSERT INTO results (mol_smiles, reported_measurement) VALUES
  ('O=c1c2ccccc2nc(-c2ccccc2Cl)n1CCc1ccc2nc(-c3ccccc3Cl)n(-c3cccc([N+](=O)[O-])c3)c(=O)c2c1', '50 µg/mL');

Give MIC99 for all compounds that follow.
1. O=c1c2ccccc2nc(-c2ccccc2Cl)n1CCc1ccc2nc(-c3ccccc3Cl)n(-c3ccc([N+](=O)[O-])cc3)c(=O)c2c1
2. O=c1c2ccccc2nc(-c2ccccc2Cl)n1CCc1ccc2nc(-c3ccccc3Cl)n(-c3ccccc3Cl)c(=O)c2c1
3. Cc1cccc(-n2c(-c3ccccc3Cl)nc3ccc(CCn4c(-c5ccccc5Cl)nc5ccccc5c4=O)cc3c2=O)c1C
4. Cc1ccc(C)c(-n2c(-c3ccccc3Cl)nc3ccc(CCn4c(-c5ccccc5Cl)nc5ccccc5c4=O)cc3c2=O)c1
5. O=c1c2ccccc2nc(-c2ccccc2Cl)n1CCc1ccc2nc(-c3ccccc3Cl)n(-c3ccc(Cl)c(Cl)c3)c(=O)c2c1
6. Cc1ccc(-n2c(-c3ccccc3Cl)nc3ccc(CCn4c(-c5ccccc5Cl)nc5ccccc5c4=O)cc3c2=O)c([N+](=O)[O-])c1

1. 200 µg/mL
2. 200 µg/mL
3. 500 µg/mL
4. 100 µg/mL
5. 50 µg/mL
6. 100 µg/mL

Your task in this section: give MIC99 for each listed record.
1. CC1(C)S[C@@H]2[C@H](NC(=O)[C@H](N)c3ccccc3)C(=O)N2[C@H]1C(=O)O
2. Cc1ccc(-n2c(-c3ccccc3Cl)nc3ccc(CCn4c(-c5ccccc5Cl)nc5ccccc5c4=O)cc3c2=O)c(C)c1

1. 250 µg/mL
2. 50 µg/mL
